- Tested on: Spodoptera litura
- Experimental Parameters: Spodoptera litura 3rd instar on cabbage plants; dose 1 ml/gm/lit. spray; 72 hrs after application
Label fulfilled when % Mortality at 72 Hrs. is at or above 40%; otherwise label not fulfilled.

Ask | Is % Mortality at 72 Hrs. for CC12CCC(CC1)C(C)(C)O2 [1,8 cineole] at or above 40%?
Reply | fulfilled

Ask | Record O=c1oc2c(O)c(O)cc3c(=O)oc4c(O)c(O)cc1c4c23 [Ellagic acid] ; criterion: % Mortality at 72 Hrs. no lower than 40%. Met?
Reply | fulfilled

Ask | Is reported % Mortality at 72 Hrs. greater than or equal to 40% here: CCCCC[C@H](O)CC(=O)CCc1ccc(O)c(OC)c1 [Gingerol]
Reply | not fulfilled

Ask | Is it the case that C=C(C)[C@H]1CC=C(C)CC1 [D-limonene] has % Mortality at 72 Hrs. reaching or exceeding 40%?
Reply | not fulfilled

Ask | Could you verify whether the entry CCCCCCCCCC(C)=O [Embodiment 2-undecanone, 2-undecanone] shows % Mortality at 72 Hrs. of no less than 40%?
Reply | fulfilled

Ask | Hello, I need to know if C=CCc1ccc(OC)cc1 [Methyl chavicol] has measured % Mortality at 72 Hrs. not below 40%. Thanks!
Reply | fulfilled

Ask | Answer whether % Mortality at 72 Hrs. of O=C(/C=C/C=C/c1ccc2c(c1)OCO2)N1CCCCC1 [Piperine] is greater than or equal to 40%.
Reply | fulfilled

Ask | State whether the measured % Mortality at 72 Hrs. reaches 40%, counting equality as reaching it, for CCCCCCCCCCCCCCCC(=O)O [Palmitic acid]
Reply | not fulfilled

Ask | Record C=C1C2CCC(C2)C1(C)C (centres unmarked) [Camphene, camphene] ; criterion: % Mortality at 72 Hrs. no lower than 40%. Met?
Reply | fulfilled

Ask | Given Cc1ccc(C(C)C)c(O)c1 [Thymol] , state whether its % Mortality at 72 Hrs. is at least 40%.
Reply | fulfilled

Ask | Identify whether the reported % Mortality at 72 Hrs. of the following compound is 40% or greater: CC12CCC(CC1=O)C2(C)C (centres unmarked) [Camphor]
Reply | fulfilled

====

- System: Helicoverpa armigera
- Experimental Parameters: Helicoverpa armigera on okra fruits; dose 1 ml/gm/lit.; 72 Hrs.; corrected for water control
Field: label. Allowed values: Condition met (% Corrected Mortality at 72 Hrs. < 60%) or Condition not met (% Corrected Mortality at 72 Hrs. >= 60%).

Ask | Consider "Cc1ccc(C(C)C)c(O)c1" . Does its % Corrected Mortality at 72 Hrs. lie strictly below 60%?
Reply | Condition not met

Ask | For this molecule, is % Corrected Mortality at 72 Hrs. lower than 60%? CC1=CCC2CC1C2(C)C (stereo not shown)
Reply | Condition not met

Ask | Is the reported % Corrected Mortality at 72 Hrs. for C=C1C2CCC(C2)C1(C)C (stereo not shown) strictly below 60%?
Reply | Condition not met

Ask | Strictly below 60%: is that where % Corrected Mortality at 72 Hrs. of "Cc1ccc(C(C)C)cc1O" sits?
Reply | Condition met

Ask | Say whether its % Corrected Mortality at 72 Hrs. is strictly beneath 60%. Entry: "CCCCC[C@H](O)CC(=O)CCc1ccc(O)c(OC)c1"
Reply | Condition met

Ask | Consider "CCCCCCCCCCCCCCCC(=O)O" . Does its % Corrected Mortality at 72 Hrs. lie strictly below 60%?
Reply | Condition met

Ask | Quick check: does "C=CCc1ccc(OC)cc1" have % Corrected Mortality at 72 Hrs. under 60%?
Reply | Condition not met

Ask | Report whether reported % Corrected Mortality at 72 Hrs. is lower than 60% (strictly) for "C/C=C\c1cc(OC)c(OC)cc1OC"
Reply | Condition met

Ask | % Corrected Mortality at 72 Hrs. under 60%? Item: "CCCCCCCCCC(C)=O"
Reply | Condition met

Ask | Does the reported % Corrected Mortality at 72 Hrs. of "CC12CCC(CC1)C(C)(C)O2" stay below 60%?
Reply | Condition met

Ask | # check: % Corrected Mortality at 72 Hrs. < 60% for "CC1=CC(=O)C(C(C)C)=CC1=O"
Reply | Condition met

Ask | Just wondering, is % Corrected Mortality at 72 Hrs. of "O=c1oc2c(O)c(O)cc3c(=O)oc4c(O)c(O)cc1c4c23" below 60%?
Reply | Condition not met

Ask | Regarding "C=C(C)[C@H]1CC=C(C)CC1" , kindly confirm whether its % Corrected Mortality at 72 Hrs. is beneath 60%.
Reply | Condition met

Ask | Is the reported % Corrected Mortality at 72 Hrs. for "O=C(/C=C/C=C/c1ccc2c(c1)OCO2)N1CCCCC1" strictly below 60%?
Reply | Condition not met
